# assay remarks: Solubility of the compound in FeSSIF
# Type: physicochemical
Everything with solubility lower than 30 µM is class 0; everything else, including exactly 30 µM, is class 1.

>  <smiles record>
Cc1c(Oc2ccc(S(C)(=O)=O)cc2F)ncnc1O[C@H]1CC[C@]2(CC1)COC(C)(C)C2

>  <group>
class 1

$$$$
>  <smiles record>
CC1(C)C[C@]2(CC[C@H](Oc3ncnc4c3CCN4c3ccc(S(C)(=O)=O)cc3F)CC2)CO1

>  <group>
class 0

$$$$
>  <smiles record>
CCc1c(Nc2ccc(S(C)(=O)=O)cc2F)ncnc1O[C@H]1CC[C@]2(CC1)COC(C)(C)C2

>  <group>
class 1

$$$$
>  <smiles record>
Cc1c(Nc2ccc(S(C)(=O)=O)cc2)ncnc1O[C@H]1CC[C@]2(CC1)COC(C)(C)C2

>  <group>
class 0

$$$$
>  <smiles record>
CC(C)c1c(Nc2ccc(S(C)(=O)=O)cc2F)ncnc1O[C@H]1CC[C@]2(CC1)COC(C)(C)C2

>  <group>
class 0

$$$$
>  <smiles record>
CN(c1ncnc2c1CCN2c1ccc(S(C)(=O)=O)cc1F)[C@H]1CC[C@]2(CC1)COC(C)(C)C2

>  <group>
class 1

$$$$
>  <smiles record>
CC1(C)C[C@]2(CC[C@H](Oc3cc(N4CCc5cc(S(C)(=O)=O)ccc54)ncn3)CC2)CO1

>  <group>
class 0

$$$$
>  <smiles record>
Cc1c(O[C@H]2CC[C@]3(CC2)COC(C)(C)C3)ncnc1N(C)c1ccc(S(C)(=O)=O)cc1F

>  <group>
class 1

$$$$
>  <smiles record>
Cc1c(Nc2ccc(C(=O)N(C)C)cc2F)ncnc1O[C@H]1CC[C@]2(CC1)COC(C)(C)C2

>  <group>
class 1

$$$$
>  <smiles record>
Cc1c(Nc2ccc(S(C)(=O)=O)cc2F)ncnc1N(C)[C@H]1CC[C@]2(CC1)COC(C)(C)C2

>  <group>
class 1

$$$$
>  <smiles record>
Cc1c(O[C@H]2CC[C@]3(CC2)COC(C)(C)C3)ncnc1N1CCc2cc(S(C)(=O)=O)ccc21

>  <group>
class 0

$$$$
>  <smiles record>
Cc1c(Nc2ccc(S(C)(=O)=O)cc2F)ncnc1O[C@H]1CC[C@]2(CC1)COC(C)(C)C2

>  <group>
class 0

$$$$
>  <smiles record>
CN(c1cc(N2CCc3cc(S(C)(=O)=O)ccc32)ncn1)[C@H]1CC[C@]2(CC1)COC(C)(C)C2

>  <group>
class 0

$$$$
